Test system: EKVX
assayMethodText: NCI tumour cell line growth inhibition, 48 h
Calls of active or inactive are those of the source. No stated cut-off is given here; in the data, active = GI50 up to about 1.1 µM and inactive = higher.
List of GI50 values.
parameter: GI50

CCOC(=O)C(C(=S)SC)c1nn2c(=O)cc(C)nc2s1 (stereo not given)    18.8 µM (inactive)
COc1cc2[nH]c3c(c2cc1OC)CCN[C@@]31CC[C@@]2(CC3c4c(cc(OC)c(O)c42)CCN3C)C[C@@H]1OC (stereo not given in full)    36.4 µM (inactive)
O=c1[nH]c2cccccc-2c1-c1nc2ccccc2[nH]1    40.8 µM (inactive)
O=[N+]([O-])c1ccc(-n2nc3ccc4c(no[n+]4[O-])c3n2)cc1    24.8 µM (inactive)
Cc1noc(NS(=O)(=O)c2ccc(NC(=O)c3ccc4nc5ccccc5c(Nc5ccc(S(=O)(=O)Nc6onc(C)c6C)cc5)c4c3)cc2)c1C    > 100 µM (inactive)

###

Assay system HCT-15; read-out recorded as log10 of GI50.
parameter: log10 of GI50 (log10 of the value in µM)

O=C1OCC2=C1C(c1ccc3c(c1)OCO3)c1cc3c(cc1O2)OCO3 (stereo not given)    -0.46
O=C(Cn1c(C(=O)/C=C/c2ccco2)nc2ccccc21)c1ccc(Cl)cc1    1.31
CC(=O)/C(=C(/Br)I)c1ccccc1    0.64
c1ccc2c(c1)CCc1c-2n(CCN2CCCCC2)c2ccccc12    1.03
CCN(CC)CCCNc1nccc2c(C)c3c(cc12)c1cnccc1n3C    -1.33
Cc1ccc(NC(=S)NNC(=O)c2cc(-c3ccccc3)nc3ccccc23)cc1C    1.31
CC12CCCCC1C(=O)C2(Cl)Cl (stereo not given)    0.53
O=C1CSC(c2cccc(Oc3ccccc3)c2)N1c1cc(Cl)ccc1Cl (stereo not given)    1.38

###

System: A549
assayMethodText: NCI tumour cell line growth inhibition, 48 h
Activity calls are given as the source filed them. Rule as the data show it: active = GI50 up to about 1.1 µM and inactive = higher.
List of GI50 values.
parameter: GI50

Cc1ccc(C)c(N2C(=O)C(=O)C(c3nc4ccccc4o3)/C(=N/N)C2=O)c1 (stereo not drawn)    > 100 µM (inactive)
COC1CC(NC(=O)C(F)(F)F)C(OC(C)=O)C(C)O1 (stereo not drawn)    > 100 µM (inactive)
COc1cc(/C=N/n2c(C)n[nH]c2=O)cc(OC)c1OC    > 100 µM (inactive)
CC(=O)NC(CCCCNC(=O)N(C)N=O)C(=O)NCc1ccccc1 (stereo not drawn)    > 100 µM (inactive)
C=CCC1=C2CCCCC2CCC1=O (stereo not drawn)    > 100 µM (inactive)
CS/C(=N\C(=S)Nc1ccccc1)Nc1ccccc1    16.5 µM (inactive)
CC(=O)Nc1ccc(-c2nc3ccccc3s2)cc1I    45 µM (inactive)
O=C(NC1C/C(=N/O)c2c(Br)sc(Br)c21)C(F)(F)F (stereo not drawn)    20 µM (inactive)
CC1=NN=C(NCCN(C)C)C/C1=C/c1ccccc1Cl    > 100 µM (inactive)
Cc1[nH]c2ncn(/N=C/c3ccccc3O)c(=N)c2c1Cc1ccccc1    39.4 µM (inactive)
CN(C)c1ccc(/C=C(\C#N)c2nc(-c3cc4ccccc4oc3=O)cs2)cc1    > 50 µM (inactive)
O=C1C2=C(C(=O)c3c(O)ccc(O)c31)[C@@H](O)[C@@H](O)[C@@H](O)C2    3.21 µM (inactive)
CCOC(=O)c1sc(N)nc1N1CCCC1    > 100 µM (inactive)
CCOC(=O)c1sc2c(c1OC(=O)c1cccs1)c(=O)n(-c1ccccc1)c(=S)n2-c1ccccc1    12.3 µM (inactive)
Cc1cc(S(=O)(=O)/N=C2\NCCN2Cc2ccccc2)c(S)cc1Cl    > 100 µM (inactive)
CN(C)c1ccc(/C=C2/SC(=S)NC2=O)cc1    > 100 µM (inactive)
CSCCC(C(=O)O)N(CC1(O)OCC(O)C(O)C1O)N=O (stereo not drawn)    > 100 µM (inactive)
O=C(Cn1c(-c2ccccc2)cc2ccccc21)N1CCCC1    > 100 µM (inactive)
CS(=O)(=O)CC(=O)c1ccccc1    > 100 µM (inactive)
COC(=O)C(CC(C)=O)CS(=O)(=O)CC(=O)C(=O)Nc1cccc([N+](=O)[O-])c1 (stereo not drawn)    > 100 µM (inactive)
C=CCOC(C)n1c(C)cc(=O)n(C(C)OCC=C)c1=O (stereo not drawn)    > 100 µM (inactive)
[N-]=[N+]=Nc1c(Cc2ccccc2)c(=O)oc2ccccc12    32.5 µM (inactive)
NNC(=O)/C(=C/c1ccc(Cl)cc1Cl)NC(=O)c1ccccc1    > 100 µM (inactive)
